I'd be grateful if you could share measured Kd for these entries.
# Test system: PI3Kα H1047R (full-length p110-α H1047R complexed with truncated p85-α, residues 322-694) + wortmannin (Homo sapiens, UniProt P42336, H1047R)
# Construct: The protein contained a full-length p110-α subunit harboring the H1047R mutation with an N-terminal AviTag
# Sequence (P42336 whole entry H1047R, the tested form may be a part): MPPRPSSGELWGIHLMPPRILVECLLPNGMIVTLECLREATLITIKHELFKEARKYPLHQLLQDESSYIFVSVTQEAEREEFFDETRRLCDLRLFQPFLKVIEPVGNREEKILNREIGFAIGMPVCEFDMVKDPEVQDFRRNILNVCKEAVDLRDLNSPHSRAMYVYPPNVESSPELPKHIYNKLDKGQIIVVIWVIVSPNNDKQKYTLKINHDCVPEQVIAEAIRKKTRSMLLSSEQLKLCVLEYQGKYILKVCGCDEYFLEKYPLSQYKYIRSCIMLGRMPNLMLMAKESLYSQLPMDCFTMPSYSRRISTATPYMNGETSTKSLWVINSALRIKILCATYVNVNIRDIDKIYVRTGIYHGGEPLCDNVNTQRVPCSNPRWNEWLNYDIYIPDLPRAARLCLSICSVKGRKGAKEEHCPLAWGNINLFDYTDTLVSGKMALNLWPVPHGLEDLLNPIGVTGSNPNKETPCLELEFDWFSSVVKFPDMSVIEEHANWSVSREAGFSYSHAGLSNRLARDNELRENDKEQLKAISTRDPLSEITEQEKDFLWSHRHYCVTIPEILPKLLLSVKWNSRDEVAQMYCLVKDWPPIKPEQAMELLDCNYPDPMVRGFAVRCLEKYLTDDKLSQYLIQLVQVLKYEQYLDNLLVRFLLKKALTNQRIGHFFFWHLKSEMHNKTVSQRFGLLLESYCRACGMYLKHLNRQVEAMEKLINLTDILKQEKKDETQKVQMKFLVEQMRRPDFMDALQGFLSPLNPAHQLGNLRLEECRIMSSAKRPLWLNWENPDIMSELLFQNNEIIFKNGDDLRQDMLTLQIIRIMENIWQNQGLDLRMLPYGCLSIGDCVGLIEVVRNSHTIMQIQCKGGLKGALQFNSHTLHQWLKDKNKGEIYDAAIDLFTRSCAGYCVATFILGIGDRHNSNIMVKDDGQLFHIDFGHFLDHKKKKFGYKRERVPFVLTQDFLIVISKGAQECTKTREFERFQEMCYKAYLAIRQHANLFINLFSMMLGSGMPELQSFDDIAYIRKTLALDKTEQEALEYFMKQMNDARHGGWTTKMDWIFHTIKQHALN
# Sequence (P27986 322-694 partner limits assumed): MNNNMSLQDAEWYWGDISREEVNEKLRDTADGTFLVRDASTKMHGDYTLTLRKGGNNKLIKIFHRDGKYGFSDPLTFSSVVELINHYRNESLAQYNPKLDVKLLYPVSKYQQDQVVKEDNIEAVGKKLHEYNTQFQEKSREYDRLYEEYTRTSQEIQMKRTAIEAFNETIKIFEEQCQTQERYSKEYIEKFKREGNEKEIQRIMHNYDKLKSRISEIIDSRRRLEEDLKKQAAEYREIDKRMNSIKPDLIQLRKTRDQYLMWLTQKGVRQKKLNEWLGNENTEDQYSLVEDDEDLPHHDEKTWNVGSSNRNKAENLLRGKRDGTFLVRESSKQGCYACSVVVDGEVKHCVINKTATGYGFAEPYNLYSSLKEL
# Method: Surface Plasmon Resonance (SPR) binding, Biacore 8K, ATP site blocked with wortmannin
# Assay setup: multi-cycle kinetics, 25° C., protein pre-incubated with 1 μM wortmannin
# Description: SPR experiments were performed on a Biacore 8K instrument. A biotinylated recombinant PI3Kα H1047R protein was used in this study. The protein contained a full-length p110-α subunit harboring the H1047R mutation with an N-terminal AviTag, complexed with a truncated p85-α subunit (amino acid residues 322-694). […] Compound binding affinities were measured in the multi-cycle kinetics mode, at 90 μL/min flow rate with 90 seconds association time and 240 seconds dissociation time. […]

Q: # lookup: Kd of Cc1c([C@@H](NC(=O)Nc2cncc(C(=O)N(C)C)c2)C(C)C)oc2ccc(F)cc12
A: 38.4 nM

Q: What value of Kd has been recorded for this entry: Cc1c([C@@H](Nc2nc3ccc(C(N)=O)cc3[nH]2)C(C)C)oc2ccc(F)cc12
A: 8.6 nM
